molecular target: LCK (Homo sapiens); experiment: Kinase selectivity, % remaining activity; format: biochemical; details: 10 μM compound, 10 μM ATP, duplicate, read-out: % of remaining activity (relative to DMSO)
Sequence (P06239 whole entry): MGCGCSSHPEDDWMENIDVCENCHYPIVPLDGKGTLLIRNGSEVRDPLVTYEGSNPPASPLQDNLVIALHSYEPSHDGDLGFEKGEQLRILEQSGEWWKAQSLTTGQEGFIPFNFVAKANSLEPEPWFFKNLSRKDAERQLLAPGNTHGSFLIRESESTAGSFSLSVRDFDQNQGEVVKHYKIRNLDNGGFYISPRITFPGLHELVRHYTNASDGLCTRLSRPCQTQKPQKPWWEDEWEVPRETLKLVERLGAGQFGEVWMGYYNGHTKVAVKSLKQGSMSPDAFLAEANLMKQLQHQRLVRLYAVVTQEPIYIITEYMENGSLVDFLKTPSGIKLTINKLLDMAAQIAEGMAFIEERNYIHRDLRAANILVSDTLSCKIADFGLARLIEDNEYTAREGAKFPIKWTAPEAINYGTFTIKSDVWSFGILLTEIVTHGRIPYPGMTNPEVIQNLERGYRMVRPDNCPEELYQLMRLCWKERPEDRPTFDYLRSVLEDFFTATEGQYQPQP
# Met = remaining activity at 10 µM below 90% (exclusive); Not met = remaining activity at 10 µM at/above 90%

Some solved entries appear below for comparison.
Task: Does Nc1ncnc2c1c(COc1cccc(Cl)c1)nn2C1CCOCC1 [PF4800567] have remaining activity at 10 µM strictly under 90%?
Result: Met

Task: Quick check: does COc1ccc(C=C2N=C(c3cccs3)OC2=O)cc1 [Comparative Compound 315] have remaining activity at 10 µM under 90%?
Result: Not met

Task: I'd appreciate it if you could check whether Nc1ncc(-c2nc3ccccc3o2)c(-c2ccncc2)n1 [Comparative Compound 324] has remaining activity at 10 µM smaller than 90%.
Result: Not met

Task: remaining activity at 10 µM under 90%? Item: CNc1c(C(N)=O)c2ccccn2c1C(=O)c1ccc(F)cc1 [Compound A]
Result: Met

Query molecule follows.
Task: I wonder whether NC(=O)c1c(N)c(C(=O)c2ccc(F)cc2)n2ccccc12 [Comparative Compound 987] has remaining activity at 10 µM below 90%. Can you tell?
Result: Met

====

Overview of reported Cmax across a group of compounds:
assay: Pharmacokinetics in male CD-1 mice; format: in vivo; conditions: mouse; IV 3 mg/kg, plasma, male CD-1 mice
Give the number; ng/mL is assumed, so skip it.

GET /value?item= CNc1c(C(N)=O)c2ccccn2c1C(=O)c1ccc(F)cc1 &field=Cmax returns 1680

Let us move to another entry and its Cmax.
Cmax recorded for this compound, Nc1ncc(-c2nc3ccccc3o2)c(-c2ccncc2)n1 , is 1150

====

assay: Pharmacokinetics in male CD-1 mice; type: in vivo; conditions: mouse; PO 30 mg/kg, plasma, male CD-1 mice
reported-property: Cmax
Please answer using a numeric value trailed by its unit.

# compound CNc1c(C(N)=O)c2ccccn2c1C(=O)c1ccc(F)cc1 [Compound A] ; its Cmax = 237 ng/mL

Further cases:
GET /value?item= Nc1ncc(-c2nc3ccccc3o2)c(-c2ccncc2)n1 [Comparative Compound 324] &field=Cmax returns 666 ng/mL

====

molecular target: ROCK1 (Homo sapiens); experiment: Kinase selectivity, % remaining activity; type: biochemical; details: 10 μM compound, 10 μM ATP, duplicate, read-out: % of remaining activity (relative to DMSO)
Sequence (Q13464 whole entry): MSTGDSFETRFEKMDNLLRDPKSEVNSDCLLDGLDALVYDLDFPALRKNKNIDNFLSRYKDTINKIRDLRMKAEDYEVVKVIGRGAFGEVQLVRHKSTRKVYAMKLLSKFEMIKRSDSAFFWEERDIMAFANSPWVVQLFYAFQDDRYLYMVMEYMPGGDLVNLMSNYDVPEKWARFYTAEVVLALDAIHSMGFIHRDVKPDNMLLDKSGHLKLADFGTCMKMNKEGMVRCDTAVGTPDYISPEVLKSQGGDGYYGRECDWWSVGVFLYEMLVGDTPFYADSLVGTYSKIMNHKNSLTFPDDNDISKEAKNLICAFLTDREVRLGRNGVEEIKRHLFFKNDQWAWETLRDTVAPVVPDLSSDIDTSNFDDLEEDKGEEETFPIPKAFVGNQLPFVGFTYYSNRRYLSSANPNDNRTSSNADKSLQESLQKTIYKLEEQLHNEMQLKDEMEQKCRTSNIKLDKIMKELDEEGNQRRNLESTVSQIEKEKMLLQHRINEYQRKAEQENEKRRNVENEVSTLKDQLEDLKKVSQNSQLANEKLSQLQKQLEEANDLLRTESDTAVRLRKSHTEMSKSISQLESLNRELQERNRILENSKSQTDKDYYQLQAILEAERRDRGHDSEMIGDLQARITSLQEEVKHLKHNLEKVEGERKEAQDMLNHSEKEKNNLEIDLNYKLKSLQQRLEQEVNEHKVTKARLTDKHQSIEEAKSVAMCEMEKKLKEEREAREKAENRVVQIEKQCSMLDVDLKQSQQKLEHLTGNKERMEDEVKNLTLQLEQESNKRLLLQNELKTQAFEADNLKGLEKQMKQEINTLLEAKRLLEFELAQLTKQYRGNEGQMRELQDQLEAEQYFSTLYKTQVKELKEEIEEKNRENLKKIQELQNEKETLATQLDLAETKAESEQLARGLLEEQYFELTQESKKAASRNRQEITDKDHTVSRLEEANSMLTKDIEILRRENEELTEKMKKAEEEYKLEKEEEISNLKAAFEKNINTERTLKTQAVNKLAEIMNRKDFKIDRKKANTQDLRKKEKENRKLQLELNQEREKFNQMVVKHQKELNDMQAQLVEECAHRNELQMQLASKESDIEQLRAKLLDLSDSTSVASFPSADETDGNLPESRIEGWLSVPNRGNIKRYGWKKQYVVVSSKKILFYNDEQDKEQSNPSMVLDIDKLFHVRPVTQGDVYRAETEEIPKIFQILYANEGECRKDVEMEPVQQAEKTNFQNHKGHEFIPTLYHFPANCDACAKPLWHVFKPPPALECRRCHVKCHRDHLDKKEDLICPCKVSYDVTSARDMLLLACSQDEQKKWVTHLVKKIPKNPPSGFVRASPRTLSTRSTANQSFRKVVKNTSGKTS
# key: entry, value: remaining activity at 10 µM
The reply should contain only the number, in %.

Here are 3 compounds together with their reported answers.
Lab note: COc1ccc(C=C2N=C(c3cccs3)OC2=O)cc1 [Comparative Compound 315] gave remaining activity at 10 µM of 93.4

Data point: Nc1ncc(-c2nc3ccccc3o2)c(-c2ccncc2)n1 [Comparative Compound 324] ; remaining activity at 10 µM = 109

// NC(=O)c1c(N)c(C(=O)c2ccc(F)cc2)n2ccccc12 [Comparative Compound 987] : remaining activity at 10 µM value = 96.9

---
The recorded remaining activity at 10 µM for Nc1ncnc2c1c(COc1cccc(Cl)c1)nn2C1CCOCC1 [PF4800567] is 95.2

# remaining activity at 10 µM of CNc1c(C(N)=O)c2ccccn2c1C(=O)c1ccc(F)cc1 [Compound A] = 95.5

====

molecular target: PKA (Homo sapiens); test: Kinase selectivity, % remaining activity; format: biochemical; settings: 10 μM compound, 10 μM ATP, duplicate, read-out: % of remaining activity (relative to DMSO)
With a cut-off of 80%, any remaining activity at 10 µM strictly below it is called y; any remaining activity at 10 µM meeting it or above is called n.

Task: Hello, is remaining activity at 10 µM of the following compound strictly smaller than 80%? Nc1ncc(-c2nc3ccccc3o2)c(-c2ccncc2)n1 [Comparative Compound 324]
Result: n

Task: Dear reviewer, please state whether COc1ccc(C=C2N=C(c3cccs3)OC2=O)cc1 [Comparative Compound 315] has remaining activity at 10 µM strictly beneath 80%.
Result: n

Task: Is remaining activity at 10 µM strictly under 80% for the entry CNc1c(C(N)=O)c2ccccn2c1C(=O)c1ccc(F)cc1 [Compound A] ?
Result: n

Task: Is 80% strictly greater than the compound's reported remaining activity at 10 µM? compound: NC(=O)c1c(N)c(C(=O)c2ccc(F)cc2)n2ccccc12 [Comparative Compound 987]
Result: y

***
Task: Criterion: remaining activity at 10 µM strictly below 80%. Is it met by Nc1ncnc2c1c(COc1cccc(Cl)c1)nn2C1CCOCC1 [PF4800567] ?
Result: n
